- Tested on: HIV NL4.3 strain
- testSummary: HIV infectivity assay, reporter cell line HeLa-CD4-LTR-LacZ, β-Gal activity (Tat protein inhibition)
- Type: cell-based, HIV-1 (NL4.3)
- settings: Human immunodeficiency virus 1, read-out: Infectivity IC50, HeLa-CD4-LTR-LacZ; analogs of TT-44881 (Table 1)
- Procedure: Next, the activity of these leads against HIV infection was evaluated using the reporter cell line HeLa-CD4-LTR-LacZ, which stably expresses the β-galactosidase (β-Gal) gene under the control of the HIV 5′ LTR. The HIV NL4.3 strain was used for these studies and β-Gal activity was measured 72 hrs post infection (FIG. 3A). […] Their anti-HIV activity was further assessed in acute replication of Jurkat T cells with the NL4.3 strain (FIG. 3A). […]
pIC50: −log10 of the molar value.
I'd appreciate it if you could supply pIC50 values for the items below.

Data request: Give reported pIC50 value for O=C1CCc2c(C(=O)NCCCN3CCCC3=O)nn(-c3ccccc3)c2C1
Data returned: 4.70 to 5.00

Data request: Give reported pIC50 value for O=C(O)c1ccc(C2(NC(=O)c3cn(-c4ccc(F)cc4)c4ccccc34)CC2)cc1
Data returned: < 4.00

Data request: Give reported pIC50 value for O=C(NCCCN1CCCC1=O)c1ccc(=O)n(-c2ccccc2)c1
Data returned: < 4.00

Data request: Give reported pIC50 value for O=C(NCCCN1CCCC1=O)c1n[nH]c2ccccc12
Data returned: < 4.00

Data request: Give reported pIC50 value for O=C(c1nn(-c2ccccc2)c2c1CCC2)N1CCCC1
Data returned: < 4.00

Data request: Give reported pIC50 value for CCN(CCCN1CCCC1=O)C(=O)c1cc(C)n(-c2ccccc2)n1
Data returned: < 4.00

Data request: Give reported pIC50 value for CCCCN(CCCN1CCCC1=O)C(=O)c1nn(-c2ccccc2)c2c1CCC2
Data returned: 4.00 to 4.30

Data request: Give reported pIC50 value for CCc1cc(C(=O)NCCCN2CCCC2=O)nn1-c1ccccc1
Data returned: 4.70 to 5.00

Data request: Give reported pIC50 value for CCN(CCCN1CCCC1=O)C(=O)c1nn(-c2ccccc2)c2c1CCC2
Data returned: < 4.00
